B1: library; numbered along this chain (parent)
chain: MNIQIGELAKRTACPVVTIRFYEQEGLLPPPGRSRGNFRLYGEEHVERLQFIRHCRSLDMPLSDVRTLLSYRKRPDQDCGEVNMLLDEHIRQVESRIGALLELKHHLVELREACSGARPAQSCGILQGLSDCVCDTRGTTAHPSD

- Variants of: B1
- TEST METHOD NOTES: sfGFP reporter fluorescence (15 h) (µM FITC); higher = stronger transcriptional activation
- SETUP CONDITIONS: library round: Round 0; ligand: 1 µM Pb

{"columns": ["VAR", "sfGFP reporter fluorescence"],
 "data": [
  ["I125V", 0.0627],
  ["R35A", 0.0883],
  ["R111D", 0.0671],
  ["E43F", 0.0828],
  ["I97P", 0.0561],
  ["D135T", 0.088],
  ["V108N", 0.0641],
  ["Y41D", 0.0607],
  ["L68E", 0.0597],
  ["R39L", 0.059],
  ["V82P", 0.0575],
  ["I125P", 0.0579],
  ["D64K G128M", 1.86],
  ["I97K", 0.0597],
  ["I90A", 0.0792],
  ["D131K", 0.127],
  ["R111C", 0.077],
  ["P143V", 0.0726],
  ["M60L G128M", 2.69],
  ["E94C", 0.115],
  ["R111S", 0.0951],
  ["E109A", 0.0804],
  ["C114H", 0.0586],
  ["D135C", 0.0792],
  ["M60R", 0.0612],
  ["K104I", 0.165],
  ["E43W", 0.0995],
  ["L62N", 0.0632],
  ["C55L", 0.0702],
  ["R20A", 0.0548],
  ["L27E", 0.0616],
  ["I97D", 0.0575],
  ["G6C", 0.0588],
  ["C79V", 0.0586],
  ["P30E", 0.0859],
  ["P143E", 0.0696],
  ["M60L K104V", 1.1],
  ["D64T", 0.331],
  ["L68R", 0.0579],
  ["R111H", 0.0652],
  ["F51A", 0.0621],
  ["G128F", 0.199],
  ["C55D", 0.061],
  ["L58S", 0.0586],
  ["D135H", 0.107],
  ["C134I", 0.113]
]}
